TESTED SYSTEM: NAD-dependent protein deacetylase sirtuin-3, mitochondrial (Homo sapiens, UniProt Q9NTG7)
Sequence (Q9NTG7 whole entry): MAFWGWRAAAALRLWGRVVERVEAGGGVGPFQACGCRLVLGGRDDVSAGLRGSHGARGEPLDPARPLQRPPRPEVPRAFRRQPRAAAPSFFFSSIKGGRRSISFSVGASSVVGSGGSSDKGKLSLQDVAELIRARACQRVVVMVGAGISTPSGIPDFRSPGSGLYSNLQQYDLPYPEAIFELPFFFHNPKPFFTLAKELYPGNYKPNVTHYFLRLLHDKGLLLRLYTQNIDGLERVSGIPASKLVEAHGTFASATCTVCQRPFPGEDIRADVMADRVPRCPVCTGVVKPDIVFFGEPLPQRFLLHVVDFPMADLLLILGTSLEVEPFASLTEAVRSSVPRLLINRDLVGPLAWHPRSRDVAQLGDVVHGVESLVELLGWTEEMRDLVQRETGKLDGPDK
EXPERIMENT DESCRIPTION: Activation of recombinant human SIRT3 assessed as lysyl deacetylase activity using (Gln-Pro-Lys-Lys(Ac)) peptide substrate by fluorescent assay
pEC50: −log10 of the molar value.
MEASURED QUANTITY: pEC50

Consider the worked cases shown below.
[
  {
    "CPD SMILES": "CCCCc1oc2ccccc2c1C(=O)c1cc(I)c(OCCCN2CCCCC2)c(I)c1",
    "TESTED SYSTEM": "NAD-dependent protein deacetylase sirtuin-3, mitochondrial (Homo sapiens, UniProt Q9NTG7)",
    "REPORTED MEASUREMENT": 5.78
  },
  {
    "CPD SMILES": "CCCCc1oc2ccccc2c1C(=O)c1cc(I)c(OCCN2CCCC2)c(I)c1",
    "TESTED SYSTEM": "NAD-dependent protein deacetylase sirtuin-3, mitochondrial (Homo sapiens, UniProt Q9NTG7)",
    "REPORTED MEASUREMENT": 4.79
  },
  {
    "CPD SMILES": "CCCCNC(=O)COc1ccc(C(=O)c2c(CCCC)oc3ccccc23)cc1",
    "TESTED SYSTEM": "NAD-dependent protein deacetylase sirtuin-3, mitochondrial (Homo sapiens, UniProt Q9NTG7)",
    "REPORTED MEASUREMENT": 4.72
  },
  {
    "CPD SMILES": "CCCCc1oc2ccccc2c1C(=O)c1ccc(OCC(=O)N2CCCCC2)cc1",
    "TESTED SYSTEM": "NAD-dependent protein deacetylase sirtuin-3, mitochondrial (Homo sapiens, UniProt Q9NTG7)",
    "REPORTED MEASUREMENT": 5.57
  },
  {
    "CPD SMILES": "CCCCc1oc2ccccc2c1C(=O)c1cc(I)c(OCCN(CC)CC)c(I)c1",
    "TESTED SYSTEM": "NAD-dependent protein deacetylase sirtuin-3, mitochondrial (Homo sapiens, UniProt Q9NTG7)",
    "REPORTED MEASUREMENT": 5.49
  }
]

1: CCCCc1oc2ccccc2c1C(=O)c1cc(I)c(OCCCN2CCN(C)CC2)c(I)c1
2: CCCCc1oc2ccccc2c1C(=O)c1cc(I)c(OCCCNCc2ccccc2)c(I)c1
3: Oc1ccc(/C=C/c2cc(O)cc(O)c2)cc1
*Q* Put the items in order so that reported pEC50 rises from first to last. Use the labels to give the ranking in the order requested.
*A* 3, 2, 1

I: CCCCc1oc2ccccc2c1C(=O)c1ccc(OCCCC(=O)N2CCCCC2)cc1
II: CCCCc1oc2ccccc2c1C(=O)c1cc(I)c(OCCCN(CC)CC)c(I)c1
*Q* Between I and II , whose recorded pEC50 is greater? Returns: label corresponding to the selected item.
*A* I

###

TESTED SYSTEM: NAD-dependent protein deacetylase sirtuin-3, mitochondrial (Homo sapiens, UniProt Q9NTG7)
EXPERIMENT DESCRIPTION: Activation of recombinant human SIRT3 assessed as lysyl deacetylase activity using (Gln-Pro-Lys-Lys(Ac)) peptide substrate by fluorescent assay
MEASURED QUANTITY: EC50 (µM)

1: CCCCc1oc2ccccc2c1C(=O)c1cc(I)c(OCCN(C)C)c(I)c1
2: CCCCc1oc2ccccc2c1C(=O)c1cc(Cl)c(OCCCN2CCCC2)c(Cl)c1
3: CCCCc1oc2ccccc2c1C(=O)c1ccc(OCCCC(=O)N[C@@H](C)c2ccccc2)cc1
*Q* Can you order these entries from above by EC50? Start with the largest number and work down. Use the labels to give the ranking in the order requested.
*A* 3, 1, 2
